Measured growth inhibition accompanies every entry in the list below.
- test_summary: NCI Yeast Anticancer Drug Screen. Data for the cln2 rad14 strain (AID 165);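 also: 0% = growth equal to vehicle treated cultures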
- condition: S. cerevisiae cln2 rad14 strain, at 5.0 µM (retest, dose inferred, filed as 0.5), active compounds read high
About 79,000 compounds went through this panel and 15% of them were active in at least one assay; those are over-represented in the sample as a whole.
A number alone suffices; assume %.

Here are 6 compounds together with their reported answers.
Task: Given CC1CN1C1=C(F)C(=O)C(N2CC2C)=C(F)C1=O (stereo not given) , state its recorded growth inhibition.
Output: 99

Task: Given CC(O)C(=O)O.CC(O)C(=O)O.[Ni] (stereo not given) , state its recorded growth inhibition.
Output: -5

Task: Given CCCCN(CCCC)CC(C(C)=O)C(c1ccccc1)c1c(O)c2ccccc2oc1=O (stereo not given) , state its recorded growth inhibition.
Output: 51

Task: Given CCCCC1C(=O)NC(=S)N(c2ccccc2)C1=O (stereo not given) , state its recorded growth inhibition.
Output: -2

Task: Given CN(CCc1ccc(Br)cc1)CCN1CCCCC1 , state its recorded growth inhibition.
Output: 55

Task: Given Clc1ccc(-c2cc(=[N+]3CC[N+](=c4cc(-c5ccc(Cl)cc5)ss4)CC3)ss2)cc1 , state its recorded growth inhibition.
Output: 5

New cases:
Task: Given CC1([CH2][Hg][I])CS(=O)(=O)CC(C)([CH2][Hg][I])O1 (stereo not given) , state its recorded growth inhibition.
Output: 99

Task: Given Cc1ccccc1C(=O)CN , state its recorded growth inhibition.
Output: -5

Task: Given CC(C)COP(=O)(O)OCC(C)C.[Al] , state its recorded growth inhibition.
Output: -1

Task: Given Cc1ccc2c[c]1[Hg][CH2]COS2(=O)=O , state its recorded growth inhibition.
Output: 9

Task: Given Cc1ccc2nc3sc(=O)sc3nc2c1 , state its recorded growth inhibition.
Output: 30

Task: Given Oc1cccc2nc3ccccc3nc12 , state its recorded growth inhibition.
Output: 1
